IC50 listing for selected compounds.
# target-entity: human plasma kallikrein (Homo sapiens, UniProt P03952)
# Sequence (P03952 391-638 limits assumed): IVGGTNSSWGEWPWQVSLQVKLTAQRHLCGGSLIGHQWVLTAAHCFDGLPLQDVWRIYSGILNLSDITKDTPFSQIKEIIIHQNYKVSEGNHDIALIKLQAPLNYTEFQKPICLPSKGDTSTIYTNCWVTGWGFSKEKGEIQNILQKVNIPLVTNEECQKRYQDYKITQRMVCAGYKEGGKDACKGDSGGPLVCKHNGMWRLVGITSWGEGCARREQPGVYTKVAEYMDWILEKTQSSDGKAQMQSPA
# Sequence (P03952 20-390 partner limits assumed): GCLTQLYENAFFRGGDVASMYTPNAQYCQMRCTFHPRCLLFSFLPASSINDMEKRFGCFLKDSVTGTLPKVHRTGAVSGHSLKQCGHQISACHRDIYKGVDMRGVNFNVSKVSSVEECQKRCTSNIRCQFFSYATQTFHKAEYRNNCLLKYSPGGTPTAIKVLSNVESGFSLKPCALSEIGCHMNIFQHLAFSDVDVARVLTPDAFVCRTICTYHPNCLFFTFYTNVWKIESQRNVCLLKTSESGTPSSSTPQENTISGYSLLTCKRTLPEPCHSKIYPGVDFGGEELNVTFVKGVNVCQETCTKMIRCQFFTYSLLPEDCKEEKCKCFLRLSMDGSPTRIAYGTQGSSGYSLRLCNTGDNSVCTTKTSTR
# assay-details: Determination of the plasma kallikrein activity (fluorogenic peptide substrate H-Pro-Phe-Arg-AMC)
# experimental-conditions: plasma kallikrein from Kordia, 15 min preincubation, 30 min at 22° C., fluorescence; some as mean values from multiple determinations

Solved cases (2 shown):
So for CC1Cc2ccc(Cl)cc2-c2cc(=O)n(C(CCOC(C)(C)C)C(=O)Nc3ccc(C(N)=O)cc3)cc2CO1 (mixture of isomers) [Example 23] , the logged IC50 turned out to be 0.41 µM

So for NC(=O)c1ccc(NC(=O)[C@H](C[C@@H]2CCCCO2)n2cc3c(cc2=O)-c2cc(Cl)ccc2C[C@@H](CO)OC3)cc1 (single isomer, unassigned) [Example 35] , the logged IC50 turned out to be 0.17 µM

More entries:
So for CC[C@@H]1Cc2ccc(Cl)cc2-c2cc(=O)n([C@@H](C[C@@H]3CCCCO3)C(=O)Nc3ccc(C(N)=O)c(F)c3)cc2CO1 (single isomer, unassigned) [Example 31] , the logged IC50 turned out to be 0.98 µM

---

# target-entity: human plasma kallikrein (Homo sapiens, UniProt P03952)
# assay-details: Determination of the plasma kallikrein activity (fluorogenic peptide substrate H-Pro-Phe-Arg-AMC)
# experimental-conditions: plasma kallikrein from Kordia, 15 min preincubation, 30 min at 22° C., fluorescence; some as mean values from multiple determinations
# Experimental: To determine the plasma kallikrein inhibition of the substances according to the invention, a biochemical test system is used which utilizes the reaction of a peptidic plasma kallikrein substrate to determine the enzymatic activity of human plasma kallikrein. Here, plasma kallikrein cleaves from the peptidic plasma kallikrein substrate the C-terminal aminomethylcoumarin (AMC), the fluorescence of which is measured. The determinations are carried out in microtitre plates. […]
IC50 listing for selected compounds.
Only the number, expressed in nM, is required.

Solved cases (4 shown):
So for CO[C@@H](C)C[C@@H](C(=O)Nc1ccc(C(N)=O)cc1)n1cc2c(cc1=O)-c1c(ccc(Cl)c1F)C[C@@H](C)OC2 (single isomer, unassigned) , the logged IC50 turned out to be 47

So for C[C@@H]1Cc2ccc(Cl)cc2-c2cc(=O)n([C@@H](C[C@@H]3COCCO3)C(=O)Nc3ccc(C(N)=O)c(F)c3)cc2CO1 (single isomer, unassigned) , the logged IC50 turned out to be 320

So for C[C@@H]1Cc2ccc(Cl)cc2-c2cc(=O)n(C(C[C@H](C)OC(F)F)C(=O)Nc3ccc(C(N)=O)cc3)cc2CO1 (mixture of isomers) , the logged IC50 turned out to be 140

So for C[C@@H]1Cc2ccc(Cl)cc2-c2cc(=O)n([C@@H](C[C@@H]3CCCCO3)C(=O)Nc3ccc(C(N)=O)nc3)cc2CO1 (single isomer, unassigned) , the logged IC50 turned out to be 420

Query compound follows.
So for COCC[C@@H](C(=O)Nc1ccc(C(N)=O)c(F)c1)n1cc2c(cc1=O)-c1cc(Cl)ccc1C[C@@H](C(F)(F)F)OC2 (single isomer, unassigned) , the logged IC50 turned out to be 340

---

# target-entity: human plasma kallikrein (Homo sapiens, UniProt P03952)
# assay-details: Determination of the plasma kallikrein activity (fluorogenic peptide substrate H-Pro-Phe-Arg-AMC)
# experimental-conditions: plasma kallikrein from Kordia, 15 min preincubation, 30 min at 22° C., fluorescence; some as mean values from multiple determinations
readout-type: pIC50
pIC50 here is simply -log10 of the concentration when that concentration is written in mol/L.

Solved cases (6 shown):
So for CC(C)OCC[C@@H](C(=O)Nc1ccc(C(N)=O)cc1)n1cc2c(cc1=O)-c1cc(Cl)ccc1C[C@@H](C)OC2 (single isomer, unassigned) , the logged pIC50 turned out to be 7.03

So for CO[C@@H](C)C[C@@H](C(=O)Nc1ccc(C(N)=O)cc1)n1cc2c(cc1=O)-c1c(ccc(Cl)c1F)C[C@@H](C(F)(F)F)OC2 (single isomer, unassigned) , the logged pIC50 turned out to be 7.13

So for CC1Cc2ccc(Cl)cc2-c2cc(=O)n(C(C[C@@H]3COCCO3)C(=O)Nc3ccc4nn(C)nc4c3)cc2CO1 (mixture of isomers) , the logged pIC50 turned out to be 6.72

So for CO[C@@H](C)C[C@@H](C(=O)Nc1ccc(C(N)=O)cc1)n1cc2c(cc1=O)-c1cc(Cl)ccc1C[C@@H](C(F)(F)F)OC2 (single isomer, unassigned) , the logged pIC50 turned out to be 6.66

So for NC(=O)c1ccc(NC(=O)[C@H](C[C@@H]2COCCO2)n2cc3c(cc2=O)-c2cc(Cl)ccc2C[C@@H](C(F)(F)F)OC3)cc1F (single isomer, unassigned) , the logged pIC50 turned out to be 6.51

So for CC[C@@H](C(=O)Nc1ccc(C(N)=O)cc1)n1cc2c(cc1=O)-c1c(ccc(Cl)c1Cl)C[C@@H](C(F)(F)F)OC2 (single isomer, unassigned) , the logged pIC50 turned out to be 6.24

More entries:
So for NC(=O)c1ccc(NC(=O)C(C[C@@H]2CCCCO2)n2cc3c(cc2=O)-c2cc(Cl)ccc2CC(CO)OC3)cc1F (mixture of isomers) , the logged pIC50 turned out to be 5.89

So for CC(C)[C@@H]1Cc2ccc(Cl)cc2-c2cc(=O)n([C@@H](C[C@@H]3CCCCO3)C(=O)Nc3ccc(C(N)=O)c(F)c3)cc2CO1 (single isomer, unassigned) , the logged pIC50 turned out to be 5.70

So for CC[C@@H](C(=O)Nc1ccc(C(N)=O)cc1)n1cc2c(cc1=O)-c1c(ccc(Cl)c1F)C[C@@H](C)O[C@H]2C (single isomer, unassigned) , the logged pIC50 turned out to be 7.40

So for COCCC(C(=O)Nc1ccc(C(N)=O)cc1)n1cc2c(cc1=O)-c1cc(Cl)ccc1CC(C(F)(F)F)OC2 (mixture of isomers) , the logged pIC50 turned out to be 6.38

So for CC(C)C1Cc2ccc(Cl)cc2-c2cc(=O)n(C(C[C@@H]3COCCO3)C(=O)Nc3ccc(C(N)=O)cc3)cc2CO1 (mixture of isomers) , the logged pIC50 turned out to be 6.09

So for COCC[C@@H](C(=O)Nc1ccn2ncnc2c1)n1cc2c(cc1=O)-c1cc(Cl)ccc1C[C@@H](C(F)(F)F)OC2 (single isomer, unassigned) , the logged pIC50 turned out to be 6.92

So for CC(C)[C@@H]1Cc2ccc(Cl)cc2-c2cc(=O)n([C@@H](C[C@@H]3COCCO3)C(=O)Nc3ccc(C(N)=O)cc3)cc2CO1 (single isomer, unassigned) , the logged pIC50 turned out to be 6.42

So for CC[C@@H](C(=O)Nc1ccc(C(N)=O)cc1)n1cc2c(cc1=O)-c1c(ccc(Cl)c1F)C[C@@H](C(F)(F)F)OC2 (single isomer, unassigned) , the logged pIC50 turned out to be 6.77

So for CC1Cc2ccc(Cl)cc2-c2cc(=O)n(C(C[C@@H]3COCCO3)C(=O)Nc3ccc(C(N)=O)cc3)cc2CO1 (mixture of isomers) , the logged pIC50 turned out to be 6.59

So for COCCC(C(=O)Nc1ccc(C(N)=O)c(F)c1)n1cc2c(cc1=O)-c1cc(Cl)ccc1CC(C(F)(F)F)OC2 (mixture of isomers) , the logged pIC50 turned out to be 6.11

So for NC(=O)c1ccc(NC(=O)C(C[C@@H]2CCCCO2)n2cc3c(cc2=O)-c2cc(Cl)ccc2CC(C(F)(F)F)OC3)cc1 (mixture of isomers) , the logged pIC50 turned out to be 6.40

So for C[C@@H]1Cc2ccc(Cl)cc2-c2cc(=O)n([C@@H](CCOC3CC3)C(=O)Nc3ccc(C(N)=O)cc3)cc2CO1 (single isomer, unassigned) , the logged pIC50 turned out to be 7.15

So for NC(=O)c1ccc(NC(=O)[C@H](C[C@@H]2COCCO2)n2cc3c(cc2=O)-c2cc(Cl)ccc2C[C@@H](C(F)(F)F)OC3)cc1 (single isomer, unassigned) , the logged pIC50 turned out to be 7.05

So for C[C@@H]1Cc2ccc(Cl)cc2-c2cc(=O)n([C@@H](CCOC(F)F)C(=O)Nc3ccc(C(N)=O)cc3)cc2CO1 (single isomer, unassigned) , the logged pIC50 turned out to be 7.14

So for CC[C@@H](C(=O)Nc1ccc(C(N)=O)c(F)c1)n1cc2c(cc1=O)-c1cc(Cl)ccc1C[C@@H](C)O[C@H]2C (single isomer, unassigned) , the logged pIC50 turned out to be 6.65
